Source of measurements: the OligoGym collection

Target: YAP1
Conditions: ASO, SNU-449, 2 µM
After the bases stand the sugars from the 5' end (letter, count) and the backbone: PS all phosphorothioate, else s phosphorothioate and o phosphodiester by linkage. Methylation of C is not given here. e = 2'-O-(2-methoxyethyl) (MOE); k = constrained ethyl (cEt); d = 2'-deoxy (DNA)
MEASURE_NAME: target mRNA inhibition (%)
Please reply with the bare figure in % and do not write the unit itself.

# count of solved cases: 3
- CTAAGTAAGGTTTCCC (sugars k3 d10 k3, PS): 83
- ATTAGAGTATGTGGCA (sugars kkdddddddddkekek, PS): 57
- ATTTAGGATGCATGGT (sugars kekdddddddddeekk, PS): 70

Alright, here's another sequence for you.
Entry ATTCAGATTTAGGATG (sugars kkdddddddddkdkdk, PS) , system YAP1: what target mRNA inhibition was measured?
-2
